test: Drug repurposing screens with cells derived from glioblastoma tumor samples (AID 1345199); conditions: GBM patient neurospheres viability, ATP luminescence, 48 h; at 21.2 µM (top of the series); tumour line D; further: on the % scale 0 is the no-effect control and ±100 the full control effect; nearly all actives have a fitted effect of over 40% in size
Records with an inconclusive call do not appear. Where a SMILES comes first, the peptide text is derived from it. Bridges are numbered along the chain shown (N, C = ends). [ ]: non-standard residue; d: D form. The star is where a group is joined. X1 = CC[C@@H](C)[C@@H](N)C1=N[C@H](C(=O)*)CS1; d(aIle) = CC[C@H](C)[C@@H](N)C(=O)O; dOrn = NCCC[C@@H](N)C(=O)O
measurement kind: activity, negative = cell killing (%)
The reply should contain only the number, in %.

{"compound": "CC[C@@H](C)[C@@H](N)C1=N[C@H](C(=O)N[C@@H](CC(C)C)C(=O)N[C@@H](CCC(=O)O)C(=O)N[C@@H](C(=O)N[C@@H]2CCCCNC(=O)[C@@H](CC(N)=O)NC(=O)[C@@H](CC(=O)O)NC(=O)[C@@H](Cc3cnc[nH]3)NC(=O)[C@@H](Cc3ccccc3)NC(=O)[C@@H]([C@H](C)CC)NC(=O)[C@@H](CCCN)NC2=O)[C@@H](C)CC)CS1 (X1-LE[d(aIle)][dK][dOrn][dI][dF][dH][dD][dN]; lactam 4-C)", "measurement kind": "activity, negative = cell killing", "scale unit": "%", "recorded number": -0.888}
{"compound": "CCCCC/C=C\\CCC(=O)N[C@H]1[C@H](Oc2c3cc4cc2Oc2ccc(cc2Cl)[C@@H](O[C@@H]2O[C@H](CO)[C@@H](O)[C@H](O)[C@H]2NC(C)=O)[C@@H]2NC(=O)[C@H](NC(=O)[C@@H]4NC(=O)[C@H]4NC(=O)[C@@H](Cc5ccc(c(Cl)c5)O3)NC(=O)[C@H](N)c3ccc(O)c(c3)Oc3cc(O)cc4c3)c3ccc(O)c(c3)-c3c(O[C@H]4O[C@H](CO)[C@@H](O)[C@H](O)[C@@H]4O)cc(O)cc3[C@@H](C(=O)O)NC2=O)O[C@H](CO)[C@@H](O)[C@@H]1O", "measurement kind": "activity, negative = cell killing", "scale unit": "%", "recorded number": -14.2}

Please turn your attention to the following entry.
Req: Looking for the measured activity, negative = cell killing of C#C[C@]1(O)CC[C@H]2[C@@H]3CCC4=C(CCC(=O)C4)[C@H]3CC[C@@]21C , can you help?
Resp: -3.97

====

test: qHTS profiling for inhibitors of Plasmodium falciparum proliferation (AID 504749); further: nearly all actives have a fitted effect of over 60% in size;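 on activity, negative = inhibition: 0% = DMSO vehicle and full inhibition = artemisinin control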; settings: P. falciparum in erythrocytes, SYBR Green DNA, 72 h; at 28.7 µM (top of the series); parasite line B
Results filed as inconclusive are left out.
measurement kind: activity, negative = inhibition (%)
The reply should contain only the number, in %.

{"compound": "CCN(CC)CCC(=O)N1c2ccccc2Sc2ccc(C(F)(F)F)cc21", "scale unit": "%", "activity, negative = inhibition": -16.3}
{"compound": "[O]=[Bi][O]C(=O)[O][Bi]=[O]", "scale unit": "%", "activity, negative = inhibition": -1.66}
{"compound": "CC12CCC(C1)C(C)(C)C2=O (stereo not given)", "scale unit": "%", "activity, negative = inhibition": 10.9}
{"compound": "[O-][N+](=Nc1ccccc1)c1ccccc1", "scale unit": "%", "activity, negative = inhibition": -6.73}
{"compound": "C=CCCCCCCCCC(=O)OC", "scale unit": "%", "activity, negative = inhibition": 10.1}

Req: Looking for the measured activity, negative = inhibition of [O]=[Bi][O][Bi]=[O] , can you help?
Resp: 4.28

Req: Looking for the measured activity, negative = inhibition of Cc1ccc(S(=O)(=O)NCl)cc1 , can you help?
Resp: 4.28

Req: Looking for the measured activity, negative = inhibition of C=CC(=O)O , can you help?
Resp: 10.1

Req: Looking for the measured activity, negative = inhibition of C=Cc1ccc(S(=O)(=O)O)cc1 , can you help?
Resp: -6.31

Req: Looking for the measured activity, negative = inhibition of CCC(C)[C@@H](N)C(=O)O (stereo not given in full) , can you help?
Resp: 24.4

Req: Looking for the measured activity, negative = inhibition of CC(C)(Oc1ccc(C2CCCc3ccccc32)cc1)C(=O)O (stereo not given) , can you help?
Resp: 7.8

Req: Looking for the measured activity, negative = inhibition of c1ccc(-n2cnnn2)cc1 , can you help?
Resp: -7.64

Req: Looking for the measured activity, negative = inhibition of OC[C@H]1O[C@@H]2O[C@H]3[C@H](O)[C@@H](O)[C@@H](O[C@H]4[C@H](O)[C@@H](O)[C@@H](O[C@H]5[C@H](O)[C@@H](O)[C@@H](O[C@H]6[C@H](O)[C@@H](O)[C@@H](O[C@H]7[C@H](O)[C@@H](O)[C@@H](O[C@H]1[C@H](O)[C@H]2O)O[C@@H]7CO)O[C@@H]6CO)O[C@@H]5CO)O[C@@H]4CO)O[C@@H]3CO , can you help?
Resp: 7.95

Req: Looking for the measured activity, negative = inhibition of NCC(O)CC(=O)O (stereo not given) , can you help?
Resp: 3.91

Req: Looking for the measured activity, negative = inhibition of CC1C(=O)CC2C3(C)CCC2(C(C)C(=O)O)C(=O)C13 (stereo not given) , can you help?
Resp: 13.7

====

tested on: CP265; assay: qHTS profiling for inhibitors of Plasmodium falciparum proliferation (AID 504749); further: nearly all actives have a fitted effect of over 60% in size; settings: P. falciparum in erythrocytes, SYBR Green DNA, 72 h; series mostly up to 28.7 µM
Records with an inconclusive call do not appear. The source made the active and inactive calls. The call rests on the fitted dose curve; in most records, active means well fitted inhibition curve with a large enough effect; inconclusive means small, poorly fitted or top-dose-only effect; inactive means flat fitted curve, though single readings scatter.
Hello, when you answer, please use one of the following outcomes: true = active, false = inactive

{"compound": "COC(=O)c1ccccc1O", "assigned label": "false"}
{"compound": "CC/C=C\\C/C=C\\C/C=C\\CCCCCCCC(=O)O", "assigned label": "false"}
{"compound": "COC(=O)C(CN)c1c[nH]c2ccc(OC)cc12 (stereo not drawn)", "assigned label": "false"}
{"compound": "CC(C)CCCC(C)NC(C)C (stereo not drawn)", "assigned label": "false"}

Req: For this compound, state the assay outcome: CCCCCCCCCCCCCCCCCC(=O)OCC(C)O (stereo not drawn)
Resp: false

Req: For this compound, state the assay outcome: CCN(CC)C(=S)S
Resp: false

Req: For this compound, state the assay outcome: O=C(O)Cc1cc(I)c(Oc2ccc(O)c(I)c2)c(I)c1
Resp: false

Req: For this compound, state the assay outcome: CC(C)C1=CC2=CC[C@@H]3[C@](C)(CCC[C@@]3(C)C(=O)O)[C@H]2CC1
Resp: false

Req: For this compound, state the assay outcome: CC1CC(O)CC(C)(C)C1 (stereo not drawn)
Resp: false

Req: For this compound, state the assay outcome: O=P(O)(O)O
Resp: false

Req: For this compound, state the assay outcome: c1ccc2ccccc2c1
Resp: false

Req: For this compound, state the assay outcome: O=[N+]([O-])c1c(Cl)cccc1-c1c[nH]cc1Cl
Resp: false

Req: For this compound, state the assay outcome: C[Si](C)(C)O[Si](C)(C)C
Resp: false

Req: For this compound, state the assay outcome: O=C(O)COc1ccccc1/C=N/NC(=O)c1ccncc1
Resp: false

Req: For this compound, state the assay outcome: Cc1cc(C)c(NC(=O)C[C@H](CC(=O)O)c2cccc3ccccc23)c(C(=O)N2CCC3(CCCC3)CC2)c1
Resp: false

====

test: Cell Viability - LYMP2-009 (AID 968); details: LYMP2-009 lymphoblastoid cell viability; series mostly up to 92.2 µM;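 further: cells exposed to compound for 24 h at 37 °C; 0% = DMSO alone and the full-kill end = tetraoctylammonium bromide at 92 µM; nearly all actives have a fitted effect of over 55% in size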
Results filed as inconclusive are left out. Active and inactive are the calls of the source. The call rests on the fitted dose curve; in most records, active means well fitted cell-killing curve with a large enough effect; inconclusive means small, poorly fitted or top-dose-only effect; inactive means flat fitted curve, though single readings scatter.
measurement kind: outcome

The following compounds have reported results that may help.
{"chem smiles": "CO/N=C(/C(=O)N[C@@H]1C(=O)N2C(C(=O)O)=C(COC(N)=O)CS[C@H]12)c1ccco1", "measurement kind": "outcome", "result": "inactive"}
{"chem smiles": "NC(N)=O", "measurement kind": "outcome", "result": "inactive"}
{"chem smiles": "CC(C)O", "measurement kind": "outcome", "result": "inactive"}
{"chem smiles": "CC[C@H]1OC(=O)[C@H](C)[C@@H](O[C@H]2C[C@@](C)(OC)[C@@H](O)[C@H](C)O2)[C@H](C)[C@@H](O[C@@H]2O[C@H](C)C[C@H](N(C)C)[C@H]2O)[C@](C)(O)C[C@@H](C)CN(C)[C@H](C)[C@@H](O)[C@]1(C)O", "measurement kind": "outcome", "result": "inactive"}

Please turn your attention to the following entry.
Req: Looking for the measured outcome of CCCCC , can you help?
Resp: inactive

====

tested on: N140; assay: qHTS profiling for inhibitors of Plasmodium falciparum proliferation (AID 504749); further: nearly all actives have a fitted effect of over 60% in size; conditions: P. falciparum in erythrocytes, SYBR Green DNA, 72 h; series mostly up to 28.7 µM
Inconclusive results are not listed. Active and inactive are the calls of the source. Calls come from the whole dose curve; as a rule, active = well fitted inhibition curve with a large enough effect; inconclusive = small, poorly fitted or top-dose-only effect; inactive = flat fitted curve, though single readings scatter.
Hello, when you answer, please use one of the following outcomes: active, inactive

Worked cases, answers included:
{"chem smiles": "N#Cc1ccc2c(c1)N(CCCN1CCC(O)CC1)c1ccccc1S2", "subject of test": "N140", "assigned label": "active"}
{"chem smiles": "Cc1ccc(C(C)(C)c2ccc(C)cc2)cc1", "subject of test": "N140", "assigned label": "inactive"}

Consider now this further compound.
Req: For this compound, state the assay outcome: O.O.O.O.O.O.O.O=S(=O)([O-])[O-].[Co+2]
Resp: active
